System: Leishmania mexicana
assayInfo: Antileishmanial activity against Leishmania mexicana MHOM/MX92/UAY68 after 48 hrs
Assay type: functional, organism-based
conditionInfo: MHOM/MX92/UAY68, 48 h
pIC50: −log10 of the molar value.
Decide by pIC50: equal to or exceeding 5 means Fulfilled, less means Not fulfilled.

Worked examples, 2 compounds total:
smilesCode	answerLabel
Cn1c(C(F)(F)F)nc2cc(Cl)c(Oc3cccc4ccccc34)cc21	Not fulfilled
N=C(N)c1ccc(OCCCCCOc2ccc(C(=N)N)cc2)cc1	Fulfilled

--- query ---
Query string: Has FC(F)(F)c1nc2cc(Cl)c(Cl)cc2[nH]1 a recorded pIC50 greater than or equal to 5?
Result string: Not fulfilled

---

Tested on: Trichinella spiralis
assayInfo: Antitrichinellosis activity against adult phase of Trichinella spiralis ML infected in mouse assessed as reduction of parasites level at 75 mg/kg administered 3 days after postinfection measured after 6 days relative to control
Type: functional
Parameters: scale not given: the % may be the effect or the level left
recordedMetric: Activity
The reply should consist of the numeric value with the unit placed after it.

smilesCode	obsValue
FC(F)(F)c1nc2cc(Oc3cccc4ccccc34)c(Cl)cc2[nH]1	80%
Cn1c(C(F)(F)F)nc2cc(Oc3cccc(Cl)c3Cl)ccc21	58%
CCCSc1ccc2[nH]c(NC(=O)OC)nc2c1	73%

Query string: For Cn1c(C(F)(F)F)nc2cc(Oc3cccc4ccccc34)c(Cl)cc21 , what is its reported Activity?
Result string: 36%

Query string: For CSc1nc2cc(Cl)c(Oc3cccc(Cl)c3Cl)cc2[nH]1 , what is its reported Activity?
Result string: 7%

---

System: Leishmania mexicana
assayInfo: Antileishmanial activity against Leishmania mexicana MHOM/MX92/UAY68 after 48 hrs
Format: functional, organism-based
conditionInfo: MHOM/MX92/UAY68, 48 h
The entries below are paired with their reported pIC50.
When answering, recall that pIC50 equals minus log10 of the concentration in mol/L, and write that number alone.

Below are worked cases with known answers.
smilesCode	measuredTarget	pIC50
FC(F)(F)c1nc2cc(Oc3cccc4ccccc34)c(Cl)cc2[nH]1	Leishmania mexicana	4.86
Cn1c(C(F)(F)F)nc2cc(Oc3cccc4ccccc34)c(Cl)cc21	Leishmania mexicana	4.19
Cn1c(C(F)(F)F)nc2cc(Oc3cccc(Cl)c3Cl)ccc21	Leishmania mexicana	4.62

Query string: Lab request: please report pIC50 under test system Leishmania mexicana for Cn1c(C(F)(F)F)nc2ccc(Oc3cccc(Cl)c3Cl)cc21
Result string: 5.39
